Tested on: Human immunodeficiency virus 1
ASSAY_EXPLANATION: Antiviral activity against HIV1 MN infection in human C8166 cells after 2 days by syncitium-forming assay
Type: functional, organism-based
Calls of active or inactive are those of the source. The calls are words filed in the database; no cut-off is given here.
READOUT_KIND: Activity

[[record]]
molecule_smiles = "COc1ccc(-c2oc3cc(O[C@@H]4O[C@H](CO[C@@H]5O[C@@H](C)[C@H](O)[C@@H](O)[C@H]5O[C@@H]5O[C@@H](C)[C@H](O)[C@@H](O)[C@H]5O)[C@@H](O)[C@H](O)[C@H]4O)cc(O)c3c(=O)c2OC)cc1O"
measured_on = "Human immunodeficiency virus 1"
measured = "inactive"

[[record]]
molecule_smiles = "COc1ccc(-c2oc3cc(O[C@@H]4O[C@H](CO[C@@H]5O[C@@H](C)[C@H](O)[C@@H](O)[C@H]5O)[C@@H](O)[C@H](O)[C@H]4O)cc(O)c3c(=O)c2OC)cc1O"
measured_on = "Human immunodeficiency virus 1"
measured = "inactive"

[[record]]
molecule_smiles = "COc1c(-c2ccc(O)c(O)c2)oc2cc(O[C@@H]3O[C@H](CO[C@@H]4O[C@@H](C)[C@H](O)[C@@H](O)[C@H]4O)[C@@H](O)[C@H](O)[C@H]3O)cc(O)c2c1=O"
measured_on = "Human immunodeficiency virus 1"
measured = "inactive"

[[record]]
molecule_smiles = "COc1ccc(-c2oc3cc(O[C@@H]4O[C@H](CO[C@@H]5O[C@@H](C)[C@H](O)[C@@H](O)[C@H]5O)[C@@H](O)[C@H](O)[C@H]4O[C@@H]4O[C@H](CO)[C@@H](O)[C@H](O)[C@H]4O)cc(O)c3c(=O)c2OC)cc1O"
measured_on = "Human immunodeficiency virus 1"
measured = "inactive"


Numbers sourced from ChEMBL document CHEMBL1145703.
